# TARGET: MERS Mpro (Middle East respiratory syndrome-related coronavirus, UniProt K9N7C7)
# Sequence (K9N7C7 3248-3553 limits assumed): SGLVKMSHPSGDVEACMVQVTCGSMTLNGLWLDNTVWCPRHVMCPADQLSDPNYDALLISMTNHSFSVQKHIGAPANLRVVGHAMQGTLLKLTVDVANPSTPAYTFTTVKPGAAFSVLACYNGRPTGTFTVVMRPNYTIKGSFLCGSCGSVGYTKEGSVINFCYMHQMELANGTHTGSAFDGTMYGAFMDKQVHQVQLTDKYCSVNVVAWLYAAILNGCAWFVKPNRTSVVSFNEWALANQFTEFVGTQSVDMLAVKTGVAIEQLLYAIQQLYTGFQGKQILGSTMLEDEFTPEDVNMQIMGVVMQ
# PROCEDURE SUMMARY: biochemical
Measured pIC50 values are reported for all entries that follow.
Bear in mind: pIC50 is minus log10 of a mol/L concentration; give just that figure.

Example molecules with recorded pIC50:
MOLECULE | pIC50
CNC(=O)C(=O)[C@H](C[C@@H]1CCNC1=O)NC(=O)[C@@H]1[C@@H]2[C@H](CN1C(=O)[C@@H](NC(=O)C13CC(C1)C3)C(C)(C)C)C2(C)C [ML1002m] | 6.60
CC1(C)[C@@H]2[C@@H](C(=O)NC(C[C@@H]3CCNC3=O)C(=O)C(N)=O)N(C(=O)CNc3c(F)cc(F)cc3F)C[C@@H]21 (some centres unmarked) | 6.72
CC(C)(C)CC(=O)N[C@H](C(=O)N1C[C@H]2[C@@H]([C@H]1C(=O)NC(C[C@@H]1CCNC1=O)C(=O)C(N)=O)C2(C)C)C(C)(C)C (some centres unmarked) | 6.59
COc1cccc2[nH]c(C(=O)N3C[C@H]4[C@@H]([C@H]3C(=O)N[C@@H](C[C@@H]3CCNC3=O)C(=O)C(N)=O)C4(C)C)cc12 | 6.47

The record that follows has no pIC50 shown yet.
Request: Checklist item: pIC50 tested on MERS Mpro (Middle East respiratory syndrome-related coronavirus, UniProt K9N7C7), entry CNC(=O)C(=O)[C@H](C[C@@H]1CCNC1=O)NC(=O)[C@@H]1[C@@H]2[C@H](CN1C(=O)CNc1c(F)cc(F)cc1F)C2(C)C [ML104m] , value?
Response: 6.54

###

# TARGET: MHV M^pro (UniProt P0C6X9)
# Sequence (P0C6X9 3334-3635): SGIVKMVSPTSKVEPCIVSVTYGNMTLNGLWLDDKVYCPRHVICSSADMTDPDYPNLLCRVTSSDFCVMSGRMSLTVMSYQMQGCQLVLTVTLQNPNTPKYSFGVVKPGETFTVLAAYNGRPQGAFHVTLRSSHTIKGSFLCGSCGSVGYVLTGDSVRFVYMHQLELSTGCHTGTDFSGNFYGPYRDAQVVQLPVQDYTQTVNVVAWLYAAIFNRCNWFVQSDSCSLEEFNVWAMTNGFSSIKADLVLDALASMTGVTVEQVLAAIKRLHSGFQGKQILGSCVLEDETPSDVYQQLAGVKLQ
# PROCEDURE SUMMARY: In-vitro Mpro inhibition assay, MHV enzyme
# Assay type: biochemical, mouse hepatitis virus (MHV)
# CONDITION CONTEXT: read-out: IC50, 100 nM mature MHV M^pro at 30° C.; 100 nM enzyme, 30° C.
MEASUREMENT LABEL: IC50

MOLECULE | IC50
CC(C)(C)NC(=O)N[C@H](C(=O)N1C[C@H]2[C@@H]([C@H]1C(=O)NC(CC1CCC1)C(=O)C(N)=O)C2(C)C)C(C)(C)C (some centres unmarked) [Boceprevir, boceprevir, reference compound] | 15 µM

The record that follows has no IC50 shown yet.
Request: Checklist item: IC50 tested on MHV M^pro (UniProt P0C6X9), entry CC(C)C[C@H](NC(=O)OCc1ccccc1)C(=O)N[C@@H](CC1CCNC1=O)C(O)S(=O)(=O)[O-].[Na+] (some centres unmarked) [GC-376, reference compound] , value?
Response: 0.067 µM

###

Measured solubility kinetic values are reported for all entries that follow.
# PROCEDURE SUMMARY: physchem
# CONDITION CONTEXT: aqueous buffer, kinetic from dmso stock
Quick reminder: number only, in µM, skip the unit.

Example molecules with recorded solubility kinetic:
MOLECULE | OBSERVED
CC1(C)[C@@H]2[C@@H](C(=O)NC(C[C@@H]3CCNC3=O)C(=O)C(N)=O)N(C(=O)CNc3c(F)cc(F)cc3F)C[C@@H]21 (stereo partly drawn) [ML104] | 86
CNC(=O)C(=O)[C@H](C[C@@H]1CCNC1=O)NC(=O)[C@@H]1[C@@H]2[C@H](CN1C(=O)CNc1c(F)cc(F)cc1F)C2(C)C [ML104m] | 98
CC(C)(C)CC(=O)N[C@H](C(=O)N1C[C@H]2[C@@H]([C@H]1C(=O)NC(C[C@@H]1CCNC1=O)C(=O)C(N)=O)C2(C)C)C(C)(C)C (stereo partly drawn) [ML1001] | 66

The record that follows has no solubility kinetic shown yet.
Request: Please give the measured solubility kinetic for this molecule: CC(C)(C)NC(=O)N[C@H](C(=O)N1C[C@H]2[C@@H]([C@H]1C(=O)NC(CC1CCC1)C(=O)C(N)=O)C2(C)C)C(C)(C)C (stereo partly drawn) [Boceprevir, boceprevir, reference compound]
Response: 73

###

Measured IC50 values are reported for all entries that follow.
# TARGET: MHV M^pro (UniProt P0C6X9)
# PROCEDURE SUMMARY: In-vitro Mpro inhibition assay, MHV enzyme
# Type: biochemical, mouse hepatitis virus (MHV)
# CONDITION CONTEXT: 100 nM MHV Mpro; read-out: IC50 MHV Mpro
Quick reminder: number only, in nM, skip the unit.

Example molecules with recorded IC50:
MOLECULE | VALUE UNIT | IC50
CC(C)(C)CC(=O)N[C@H](C(=O)N1C[C@H]2[C@@H]([C@H]1C(=O)NC(C[C@@H]1CCNC1=O)C(=O)C(N)=O)C2(C)C)C(C)(C)C (stereo partly drawn) | nM | 70
CC1(C)[C@@H]2[C@@H](C(=O)N[C@@H](C[C@@H]3CCNC3=O)C(=O)C(N)=O)N(C(=O)CCc3ccccc3)C[C@@H]21 | nM | 980
CC(C)(C)NC(=O)N[C@H](C(=O)N1C[C@H]2[C@@H]([C@H]1C(=O)NC(CC1CCC1)C(=O)C(N)=O)C2(C)C)C(C)(C)C (stereo partly drawn) [Boceprevir, boceprevir, reference compound] | nM | 15000
CC(C)C[C@H](NC(=O)OCc1ccccc1)C(=O)N[C@@H](CC1CCNC1=O)C(O)S(=O)(=O)[O-].[Na+] (stereo partly drawn) [GC-376, reference compound] | nM | 50
CC1(C)[C@@H]2[C@@H](C(=O)NC(C[C@@H]3CCNC3=O)C(=O)C(N)=O)N(C(=O)CNc3c(F)cc(F)cc3F)C[C@@H]21 (stereo partly drawn) | nM | 250

The record that follows has no IC50 shown yet.
Request: Checklist item: IC50 tested on MHV M^pro (UniProt P0C6X9), entry COc1cccc2[nH]c(C(=O)N3C[C@H]4[C@@H]([C@H]3C(=O)N[C@@H](C[C@@H]3CCNC3=O)C(=O)C(N)=O)C4(C)C)cc12 , value?
Response: 60

###

Human Cathepsin L (Homo sapiens): reported pIC50 for various compounds.
Sequence (P07711 114-333): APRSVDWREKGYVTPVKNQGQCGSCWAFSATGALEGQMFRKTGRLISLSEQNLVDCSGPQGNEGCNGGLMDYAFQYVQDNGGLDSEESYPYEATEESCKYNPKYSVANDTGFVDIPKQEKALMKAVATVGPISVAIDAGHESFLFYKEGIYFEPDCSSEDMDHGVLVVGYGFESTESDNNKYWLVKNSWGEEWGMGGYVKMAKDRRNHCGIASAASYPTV
Bear in mind: pIC50 is minus log10 of a mol/L concentration; give just that figure.

Example compounds with recorded pIC50:
COMPOUND | TARGET | pIC50
CC(C)(C)CC(=O)N[C@H](C(=O)N1C[C@H]2[C@@H]([C@H]1C(=O)NC(C[C@@H]1CCNC1=O)C(=O)C(N)=O)C2(C)C)C(C)(C)C (some centres unmarked) | Human Cathepsin L (Homo sapiens) | 4.48
COc1cccc2[nH]c(C(=O)N3C[C@H]4[C@@H]([C@H]3C(=O)N[C@@H](C[C@@H]3CCNC3=O)C(=O)C(N)=O)C4(C)C)cc12 | Human Cathepsin L (Homo sapiens) | 6.52
CCC[C@H](NC(=O)[C@@H]1[C@H]2CCC[C@H]2CN1C(=O)[C@@H](NC(=O)[C@@H](NC(=O)c1cnccn1)C1CCCCC1)C(C)(C)C)C(=O)C(=O)NC1CC1 [Telaprevir, telaprevir, reference compound] | Human Cathepsin L (Homo sapiens) | 4.60

Request: Please give the measured pIC50 for this compound: CC1(C)[C@@H]2[C@@H](C(=O)N[C@@H](C[C@@H]3CCNC3=O)C(=O)C(N)=O)N(C(=O)CCc3ccccc3)C[C@@H]21
Response: 6.10

Request: Please give the measured pIC50 for this compound: CC(C)(C)NC(=O)N[C@H](C(=O)N1C[C@H]2[C@@H]([C@H]1C(=O)NC(CC1CCC1)C(=O)C(N)=O)C2(C)C)C(C)(C)C (some centres unmarked) [Boceprevir, boceprevir, reference compound]
Response: 6.40

###

# PROCEDURE SUMMARY: in vitro
# CONDITION CONTEXT: mouse, plasma
MEASUREMENT LABEL: half-life (min)
Quick reminder: number only, in min, skip the unit.

MOLECULE | half-life [min]
CNC(=O)C(=O)[C@H](C[C@@H]1CCNC1=O)NC(=O)[C@@H]1[C@@H]2[C@H](CN1C(=O)[C@@H](NC(=O)C13CC(C1)C3)C(C)(C)C)C2(C)C [ML1002m] | 170

Request: Please give the measured half-life for this molecule: CC(C)(C)[C@H](NC(=O)C12CC(C1)C2)C(=O)N1C[C@H]2[C@@H]([C@H]1C(=O)N[C@@H](C[C@@H]1CCNC1=O)C(=O)C(N)=O)C2(C)C
Response: 21

Request: Please give the measured half-life for this molecule: CC(C)(C)NC(=O)N[C@H](C(=O)N1C[C@H]2[C@@H]([C@H]1C(=O)NC(CC1CCC1)C(=O)C(N)=O)C2(C)C)C(C)(C)C (some centres unmarked) [Boceprevir, boceprevir, reference compound]
Response: 28

Request: Please give the measured half-life for this molecule: COc1cccc2[nH]c(C(=O)N3C[C@H]4[C@@H]([C@H]3C(=O)N[C@@H](C[C@@H]3CCNC3=O)C(=O)C(N)=O)C4(C)C)cc12
Response: 20

Request: Please give the measured half-life for this molecule: CC(C)(C)CC(=O)N[C@H](C(=O)N1C[C@H]2[C@@H]([C@H]1C(=O)NC(C[C@@H]1CCNC1=O)C(=O)C(N)=O)C2(C)C)C(C)(C)C (some centres unmarked)
Response: 26
